Test system: GRPS genomic biomarker signature (389 transcripts) in MUTZ-3 cells
ASSAY_SUMMARY: GARD assay with GARD Respiratory Prediction Signature (GRPS), SVM classification of respiratory sensitizers
CONDITIONS_USED: replicate stimulation 3; 24 h at GARD input concentration; independent test dataset; > 0 = respiratory sensitizer
PARAMETER_MEASURED: SVM decision value 3
Give your answer as a number; write no unit.

Param item = O=C(O)c1ccc(O)cc1 [p-hydroxybenzoic acid] ; retrieve measured SVM decision value 3.
−1.09

Param item = CC(O)C(=O)O (stereo not drawn) ; retrieve measured SVM decision value 3.
−0.89

Param item = CCOC(=O)c1ccccc1C(=O)OCC [Diethyl phthalate] ; retrieve measured SVM decision value 3.
−1.22

Param item = Clc1ccccc1 ; retrieve measured SVM decision value 3.
−1.15

Param item = Sc1nc2ccccc2s1 ; retrieve measured SVM decision value 3.
−0.57

Param item = C=CCc1ccc(O)c(OC)c1 ; retrieve measured SVM decision value 3.
−1.51

Param item = O=CC=O ; retrieve measured SVM decision value 3.
−0.56

Param item = OCC=Cc1ccccc1 ; retrieve measured SVM decision value 3.
−1.26

Param item = O=C(O)c1ccccc1O ; retrieve measured SVM decision value 3.
−1.13

Param item = CCCCCCCC(=O)O ; retrieve measured SVM decision value 3.
−1.22

Param item = O=[N+]([O-])c1ccc(Cl)c([N+](=O)[O-])c1 ; retrieve measured SVM decision value 3.
−1.90

Param item = Nc1ccc(N)cc1 ; retrieve measured SVM decision value 3.
−1.80

Param item = O=Cc1ccccc1 ; retrieve measured SVM decision value 3.
−0.70

Param item = OCC(O)CO ; retrieve measured SVM decision value 3.
−0.77

Param item = Oc1cccc(O)c1 ; retrieve measured SVM decision value 3.
−1.40
